Test system: Yersinia pseudotuberculosis
Assay: IC25 growth inhibition; higher = less potent
For each entry below, report its IC25 growth inhibition value.

[in] Give the reported value of IC25 growth inhibition for this record: CC(CN1c2ccccc2Sc2ccccc21)N(C)C (stereo not given)
[out] ≤ 160 µM

Could you tell me IC25 growth inhibition for each of these compounds? They are listed below.
1. CCN(CC)C(C)CN1c2ccccc2Sc2ccccc21 (stereo not given)
2. Cc1ncc([N+](=O)[O-])n1CCO
3. CC(=O)N1CCN(c2ccc(OCC3COC(Cn4ccnc4)(c4ccc(Cl)cc4Cl)O3)cc2)CC1 (stereo not given)
4. CCOC(=O)C1=C(COCCN)NC(C)=C(C(=O)OC)C1c1ccccc1Cl (stereo not given)

[out]
> 80 µM
≤ 160 µM
> 160 µM
> 80 µM

###

System: Streptococcus parasanguinis
Test: IC25 growth inhibition; higher = less potent
For each entry below, report its IC25 growth inhibition value.

Could you tell me IC25 growth inhibition for each of these compounds? They are listed below.
1. CN(C)CCCN1c2ccccc2Sc2ccc(Cl)cc21
2. CCn1cc(C(=O)O)c(=O)c2cc(F)c(N3CCNCC3)cc21

[out]
≤ 160 µM
≤ 20 µM

Could you tell me IC25 growth inhibition for each of these compounds? They are listed below.
1. O=c1[nH]c(=O)n([C@H]2C[C@H](O)[C@@H](CO)O2)cc1F
2. Cc1c(OCC(F)(F)F)ccnc1C[S+]([O-])c1nc2ccccc2[nH]1 (configuration not stated)
3. C[C@]12CCC3=C4CCC(=O)C=C4CC[C@H]3[C@@H]1CC[C@@]2(O)CC#N
4. CCOC1O[C@H]([C@@H](COCc2ccccc2)OCc2ccccc2)[C@H](OCc2ccccc2)[C@H]1O (some centres not stated) [Tribenoside]
5. N=C(N)c1ccc(OCCCCCOc2ccc(C(=N)N)cc2)cc1 [Pentamidine Isothionate]

[out]
["< 1.25 µM", "> 160 µM", "> 80 µM", "> 40 µM", "≤ 10 µM"]

###

For each entry below, report its IC25 growth inhibition value.
System: Vibrio cholerae
Test: IC25 growth inhibition; higher = less potent

[in] Give the reported value of IC25 growth inhibition for this record: C[C@]12CCC3=C4CCC(=O)C=C4CC[C@H]3[C@@H]1CC[C@@]2(O)CC#N [Dienogest]
[out] > 80 µM

[in] Give the reported value of IC25 growth inhibition for this record: CN(C)CC/C=C1/c2ccccc2Sc2ccc(Cl)cc21 [Chlorprothixene]
[out] ≤ 20 µM

[in] Give the reported value of IC25 growth inhibition for this record: CCN(CC)C(C)CN1c2ccccc2Sc2ccccc21 (stereo not given) [Ethopropazine]
[out] > 80 µM

[in] Give the reported value of IC25 growth inhibition for this record: COc1ccc2[nH]c([S+]([O-])Cc3ncc(C)c(OC)c3C)nc2c1 (stereo not given) [Omeprazole]
[out] > 160 µM

Next, consider the following compound.
[in] Give the reported value of IC25 growth inhibition for this record: CN(C)CCCN1c2ccccc2Sc2ccc(Cl)cc21 [Chlorpromazine]
[out] ≤ 160 µM

###

System: Bacteroides uniformis
Assay: IC25 growth inhibition; higher = less potent
RESULT TYPE: IC25 growth inhibition

Look over these answered cases.
[in] Give the reported value of IC25 growth inhibition for this record: Cc1ncc([N+](=O)[O-])n1CCO
[out] < 1.25 µM

[in] Give the reported value of IC25 growth inhibition for this record: Clc1ccc(Cn2c(CN3CCCC3)nc3ccccc32)cc1
[out] > 160 µM

[in] Give the reported value of IC25 growth inhibition for this record: CC(=O)N1CCN(c2ccc(OCC3COC(Cn4ccnc4)(c4ccc(Cl)cc4Cl)O3)cc2)CC1 (stereo not drawn)
[out] ≤ 40 µM

[in] Give the reported value of IC25 growth inhibition for this record: CN1CCN(C2=Nc3ccccc3Oc3ccc(Cl)cc32)CC1
[out] ≤ 160 µM

[in] Give the reported value of IC25 growth inhibition for this record: O=C(Nc1ccc([N+](=O)[O-])cc1Cl)c1cc(Cl)ccc1O [Niclosamide]
[out] < 1.25 µM

[in] Give the reported value of IC25 growth inhibition for this record: CN(C)CCCN1c2ccccc2Sc2ccc(Cl)cc21
[out] ≤ 80 µM

[in] Give the reported value of IC25 growth inhibition for this record: N[C@@H](Cc1cc(I)c(Oc2cc(I)c(O)c(I)c2)c(I)c1)C(=O)O
[out] > 160 µM

[in] Give the reported value of IC25 growth inhibition for this record: N=C(N)c1ccc(OCCCCCOc2ccc(C(=N)N)cc2)cc1 [Pentamidine Isothionate]
[out] ≤ 20 µM

Could you tell me IC25 growth inhibition for each of these compounds? They are listed below.
1. CCN(CC)C(C)CN1c2ccccc2Sc2ccccc21 (stereo not drawn)
2. C[C@@H](O[C@H]1OCCN(Cc2n[nH]c(=O)[nH]2)[C@H]1c1ccc(F)cc1)c1cc(C(F)(F)F)cc(C(F)(F)F)c1 [Aprepitant]
3. CCOC(=O)C1=C(COCCN)NC(C)=C(C(=O)OC)C1c1ccccc1Cl (stereo not drawn)
4. CCn1cc(C(=O)O)c(=O)c2ccc(C)nc21
5. CCCc1nc2c(C)cc(-c3nc4ccccc4n3C)cc2n1Cc1ccc(-c2ccccc2C(=O)O)cc1

[out]
["≤ 10 µM", "> 160 µM", "≤ 80 µM", "≤ 160 µM", "> 160 µM"]

###

For each entry below, report its IC25 growth inhibition value.
Test system: Yersinia pseudotuberculosis
Assay: IC25 growth inhibition; higher = less potent

Look over these answered cases.
[in] Write down the reported IC25 growth inhibition (system: Yersinia pseudotuberculosis) of O=C1NCCN1CCN1CCC(c2cn(-c3ccc(F)cc3)c3ccc(Cl)cc23)CC1 [Sertindole]
[out] ≤ 160 µM

[in] Write down the reported IC25 growth inhibition (system: Yersinia pseudotuberculosis) of CCOC(=O)C1=C(C)NC(C)=C(C(=O)OCC)C1c1ccccc1/C=C/C(=O)OC(C)(C)C [Lacidipine]
[out] > 20 µM

[in] Write down the reported IC25 growth inhibition (system: Yersinia pseudotuberculosis) of CN1CCN(C2=Nc3ccccc3Oc3ccc(Cl)cc32)CC1 [Loxapine]
[out] > 160 µM

[in] Write down the reported IC25 growth inhibition (system: Yersinia pseudotuberculosis) of CC(C)(O)c1ccccc1CC[C@@H](SCC1(CC(=O)O)CC1)c1cccc(/C=C/c2ccc3ccc(Cl)cc3n2)c1 [Montelukast]
[out] > 20 µM

Could you tell me IC25 growth inhibition for each of these molecules? They are listed below.
1. COc1cccc2c1C(=O)c1c(O)c3c(c(O)c1C2=O)C[C@@](O)(C(=O)CO)C[C@@H]3O[C@H]1C[C@H](N)[C@H](O)[C@H](C)O1 [Doxorubicin]
2. CCCc1nc2c(C)cc(-c3nc4ccccc4n3C)cc2n1Cc1ccc(-c2ccccc2C(=O)O)cc1 [Telmisartan]
3. CCn1cc(C(=O)O)c(=O)c2ccc(C)nc21 [Nalidixic Acid]

[out]
["> 160 µM", "> 40 µM", "≤ 2.5 µM"]

[in] Write down the reported IC25 growth inhibition (system: Yersinia pseudotuberculosis) of CC(C)(C)c1ccc(C(O)CCCN2CCC(C(O)(c3ccccc3)c3ccccc3)CC2)cc1 (stereo not drawn) [Terfenadine]
[out] > 80 µM

###

Test system: Bacteroides thetaiotaomicron
Assay: IC25 growth inhibition; higher = less potent
RESULT TYPE: IC25 growth inhibition

Look over these answered cases.
[in] Give the reported value of IC25 growth inhibition for this record: OC(Cn1cncn1)(Cn1cncn1)c1ccc(F)cc1F [Fluconazole]
[out] > 160 µM

[in] Give the reported value of IC25 growth inhibition for this record: CC(=O)N1CCN(c2ccc(OCC3COC(Cn4ccnc4)(c4ccc(Cl)cc4Cl)O3)cc2)CC1 (stereo not drawn) [Ketoconazole]
[out] ≤ 80 µM

Could you tell me IC25 growth inhibition for each of these molecules? They are listed below.
1. CCN(CC)C(C)CN1c2ccccc2Sc2ccccc21 (stereo not drawn) [Ethopropazine]
2. Cc1ncc([N+](=O)[O-])n1CCO [Metronidazol]

[out]
1. ≤ 2.5 µM
2. < 1.25 µM

Could you tell me IC25 growth inhibition for each of these molecules? They are listed below.
1. CCn1cc(C(=O)O)c(=O)c2ccc(C)nc21 [Nalidixic Acid]
2. CNCCC(Oc1ccc(C(F)(F)F)cc1)c1ccccc1 (stereo not drawn) [Fluoxetine]
3. C[C@H]1O[C@H](O[C@H]2[C@H](O)[C@@H](O)[C@@H](O[C@H]3[C@H](O)[C@@H](O)C(O)O[C@@H]3CO)O[C@@H]2CO)[C@H](O)[C@@H](O)[C@@H]1N[C@H]1C=C(CO)[C@@H](O)[C@H](O)[C@H]1O (stereo partly drawn) [Acarbose]

[out]
["≤ 160 µM", "≤ 160 µM", "> 160 µM"]

[in] Give the reported value of IC25 growth inhibition for this record: O=C(O)Cc1cc(I)c(Oc2ccc(O)c(I)c2)c(I)c1 [Tiratricol]
[out] ≤ 80 µM

###

System: Com21 synthetic gut community
Assay: community biomass OD578 after 24 h drug treatment relative to untreated (fraction of untreated control); higher = more community growth
Settings: drug pretreatment concentration 2.5 µM; community: Com21 (Com20 + E. coli ED1a)
Please mark 1 if the recorded community biomass OD578 is equal to or greater than 1, and 0 if it falls below.

[in] Hi, just wondering whether COCCOC(=O)C1=C(C)NC(C)=C(C(=O)OC/C=C/c2ccccc2)C1c1cccc([N+](=O)[O-])c1 (stereo not given) [Cilnidipine] shows community biomass OD578 of 1 or higher.
[out] 1

Further cases:
[in] Hi, just wondering whether Clc1ccccc1C(c1ccccc1)(c1ccccc1)n1ccnc1 [Clotrimazole] shows community biomass OD578 of 1 or higher.
[out] 0

[in] Hi, just wondering whether CN(Cc1cnc2nc(N)nc(N)c2n1)c1ccc(C(=O)N[C@@H](CCC(=O)O)C(=O)O)cc1 [Methotrexate] shows community biomass OD578 of 1 or higher.
[out] 0

[in] Hi, just wondering whether O=c1oc2ccccc2c(O)c1Cc1c(O)c2ccccc2oc1=O [Dicumarol] shows community biomass OD578 of 1 or higher.
[out] 0
